Molecular target: T1, Biotin PSGL-1(42-62) peptide, unmodified (human, C-terminal Lys-biotin)
T1 construct: Residues 42-62 followed by GGGK-biotin; also called WT; wild-type
T1 peptide: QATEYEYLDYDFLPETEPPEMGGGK
Assay: ELISA, immobilized biotin peptide
The threshold is 1 A450nm. Values of A450nm, 20 nM mAb beneath it are tagged true; values meeting or exceeding it are tagged false.

# binder, class
rows = [
    ("01A04 (antibody, IgG4, V domains shown) VH: EVQLVQSGAEVKKPGASVKVSCKASGYTFTSYYIHWVRQAPGQGLEWMGIIRPSGGSTSYAQKFQGRVTMTRDTSTSTVYMELSSLRSEDTAMYYCARVGVGSFDYWGQGTLVTVSS VL: DIQMTQSPSTLSASVGDRVTITCRASQSVSNWLAWYQQKPGKAPKLLIYKASSLESGVPSRFSGSGSGTEFTLTISSLQPDDFATYYCQWFRTFGPGTKVDIK", "false"),
    ("05A07 (antibody, IgG4, V domains shown) VH: QVQLVQSGSEVKRPGASVKVSCKTSGYTFSNYGIAWVRQAPGQGLEWVGWVSAYNGKTGASQKLQGRVTMTTDRSTTTAYLELRSLQSDDTAVYYCARGVKGGLTGYARDYWGQGTLVIVSS VL: DIVLTQSPRSLPVTLGQPASISCRSSQSLVNRAGDTYLNWFQQRPGQSPRRLIYKVSNRDSGVPDRFSGSGSGTDFTLKISRVEAEDVGVYYCMQGTQWPYTFGQGTKLEIK", "true"),
    ("01A11 (antibody, IgG4, V domains shown) VH: EVKLLESGGGLVQPGGSLRLSCATSGFSFSDYWMSWVRQAPGKGLEWVASIKKDGSEKYYVDSVKGRFTISRDNAKNSLYVQMNSLRAEDTAIYYCVVFGAWGPGTLVTVSS VL: DIVMTQTPLSLPVTLGQPASISCRSGRSLVYSDGNTYLNWFQQRPGQSPRRLIYKVSNRDSGVPDRFSGGGSGTDFTLKISRVEAEDVAIYYCMQGTHWPPTFGQGTKLEIK", "false"),
    ("03B03 (antibody, IgG4, V domains shown) VH: EVQLVQSGGGLVQPGGSLRLSCAATGFTVSRNYMTWVREAPGKGLEWVAGIYKSGTTSYTESVKGRFTISRDNSKNTLYLEMSRLRAEDTAVYYCAKSTSTWGQGTQVTVSS VL: DIVMTQSPLSLPVTLGQPASISCRASQSPGYSDGNTYLNWFQQRPGQSPRRLIYKVSNRDPGVPDRFSGSGSGTDFTLKISRVEAEDVGVYYCMQATHWPSFGQGTRLEIK", "false"),
    ("09C10 (antibody, V domains shown) VH: EVKLLESGGGLIQPGGSLRLSCAASGFTVSNNYVTWVRQAPGKGLELVSSIYSGGGTYYADSVKGRFTISRDNSKNTVYLQMNSLRADDTAVYYCARNVPVTNFGYWGQGTLVTVSS VL: DIVMTQSPLSLPVTLGQPASISCRSSQSLVYRDGNTYLNWFQQRPGQSPRRLIYKVSNRDSGVPDRFSGSGSGTDFTLKISRVEAEDVGVYYCMQLTHWPPGFAQGTKLEIK", "true"),
    ("03D01 (antibody, IgG4, V domains shown) VH: EVQLVQSGGGLVQPGGSLRLSCAATGFTVSRNYMTWVREAPGKGLEWVAGIYKSGTTSYIESVKGRFTISRDNSKNTLYLEMSRLRAEDTAVYYCAKSTSTWGQGTQVTVSS VL: DVVMTQSPVSLPVTLGQPASISCRSSRNLLYSNGNTYLNWFHQRPGQSPRRLIYKVSNQDSGVPDRFSGSGSGTDFTLKISRVEAEDVGVYYCMQGTHWPTTFGQGTRLEIK", "false"),
    ("06C04 (antibody, IgG4, V domains shown) VH: EVQLVESGGGLVQPGGSLRLSCAASGFTFSDHYMDWVRQAPGKGLEWVGRSRNKVKSYTTAYAASVEGRITISRDDSKNSLYLEMNSLKTEDTAVYYCVRVRWGGAFDIWGQGTMVTVSS VL: QPVLTQPPSASGSPGQSVTISCTGTSSDVGGYNYVSWYQQHPGKAPKLMIYEVSKRPSGVPDRFSGSKSGNTASLTVSGLQAEDEADYYCSSYAGSNNLRVFGGGTKLTVL", "true"),
    ("05D01 (antibody, V domains shown) VH: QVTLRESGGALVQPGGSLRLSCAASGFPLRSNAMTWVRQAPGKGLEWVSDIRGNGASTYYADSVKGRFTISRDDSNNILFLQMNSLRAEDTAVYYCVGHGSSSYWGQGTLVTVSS VL: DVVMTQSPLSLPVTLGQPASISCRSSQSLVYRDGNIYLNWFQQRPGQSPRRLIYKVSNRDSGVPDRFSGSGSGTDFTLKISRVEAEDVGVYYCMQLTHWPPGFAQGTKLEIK", "false"),
    ("02E01 (antibody, IgG4, V domains shown) VH: EVQLVQSGGGVVQPGRSLRLSCAASGFTFSRYGMHWVRQAPGKGLEWVSVISYDGNNKYYADSVKGRFTISRDNSKNTVYLQMNSLRADDTAVYYCARNVPVTNFGYWGQGTLVTVSS VL: QSALTQPASVSGSPGQSITISCTGTSSDVGGYNYVSWYQQHPGKAPKLMIYDVSKRPSGVSNRFSGSKSGNTASLTISGLQAEDEADYYCSSYTRPGRVFGGGTKLTVL", "false"),
    ("06B02 (antibody, IgG4, V domains shown) VH: QVQLVESGPGLVKPSETLSLTCTVSGVSVSSYYWTWVRQSPGKGLEWIGHVHHSGISNYNPSLKSRVVMSVDTSKNYFSLKLRSVTAADTAVYYCARGGPRISPTNWGQGTLVTVSS VL: QPVLTQPPSVSKALRQTATLTCTGNSNNVGYQGATWLRQHQGHPPRLLSYRNNNRPSGISERFSASRSGNTATLTITGLQPDDEADYYCAAWDSSLSAWVFGGGTKLTVL", "true"),
]
